B1: CPEB3 Ribozyme (parent)
chain: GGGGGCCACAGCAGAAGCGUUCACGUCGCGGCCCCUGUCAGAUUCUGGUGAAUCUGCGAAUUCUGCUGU

# Variants of: B1
# PROTOCOL DESCRIPTION: self-cleavage, relative activity (ratio to wild type); higher = more cleavage; co-transcriptional

>  <SEQ>
GGGGGCCCCAGCAGAAGCGUUCACGUCGCGGCCCCUGUCAGAUUCUGGUGAAUCUGCGUAUUCUGCUGU [A8C A59U]

>  <self-cleavage>
0.821

$$$$
>  <SEQ>
GGGGGCCACAGCAGAAGCGUUCACGUCGCGGCCCCUGUGAGAUUAUGGUGAAUCUGCGAAUUCUGCUGU [C39G C45A]

>  <self-cleavage>
0.787

$$$$
>  <SEQ>
GGGGGCCACAGCAGAAGCGUUCGCGUCGCAGCCCCUGUCAGAUUCUGGUGAAUCUGCGAAUUCUGCUGU [A23G G30A]

>  <self-cleavage>
0.79

$$$$
